A collection of molecules and their measured AC50
system: U2OS proteasome chymotrypsin-like activity, Proteasome-Glo luminescence; test: proteasome chymotrypsin-like activity inhibition in U2OS, dose response, counter-screen for HIF activator project, cell-based, luminescence, dry powder, set 3 (AID 493213)

compoundSmiles: O=C(Nc1ncc2ccccc2n1)c1cc(-c2ccccc2)on1
AC50: 28.1 µM
//
compoundSmiles: Cc1cccc(CNC(=O)c2cc(-c3ccccc3)on2)c1
AC50: 39.4 µM
//
compoundSmiles: CC(C)(C)CCNC(=O)c1cc(-c2ccccc2)on1
AC50: 36.5 µM
//
compoundSmiles: O=C(c1cc(-c2ccccc2)on1)N1CCN(c2ccncc2)CC1
AC50: 2.52 µM
//
compoundSmiles: Cc1cccc(NC(=O)c2cc(-c3ccccc3)on2)n1
AC50: 17.3 µM
//
compoundSmiles: O=C(Nc1ccc2ccccc2n1)c1cc(-c2ccccc2)on1
AC50: 29.1 µM
//
compoundSmiles: O=C(NCC1CC1)c1cc(-c2ccccc2)on1
AC50: 33.7 µM
//
compoundSmiles: CN(C)CCNC(=O)c1cc(-c2ccccc2)on1
AC50: 33.4 µM
//
compoundSmiles: c1ccc(-c2cnc(Nc3nc(-c4ccccn4)nnc3-c3ccccc3)s2)cc1
AC50: 2.42 µM
//
compoundSmiles: CCCCNC(=O)c1cc(-c2ccccc2)on1
AC50: 21.5 µM
//
compoundSmiles: O=C(NCCCO)c1cc(-c2ccccc2)on1
AC50: 3.88 µM
